Test: In vivo pharmacokinetics (PK) study in rats
Design: species or system SD rats
Conditions: rat, plasma; SD rats, IV 5 mg/kg; read-out: Vz
recorded metric: Vd (L/kg)
# unit: L/kg | format: bare number

-- ask For the compound Cc1c(C(=O)Nc2ccc(F)c(C#N)c2)c(C)n(C)c1C(=O)C(=O)N[C@@H](C)C(F)(F)F [Example 12] , give its reported Vd.
-- reply 0.914

###

Listed compounds paired with reported CC50 at 6 days
Assay: In vitro cytotoxicity (CCK-8) in HepG2.2.15 cells
Type: cell-based
Settings: human

# count of solved cases: 5
-- ask For the compound Cc1c(C(=O)Nc2ccc(F)c(C#N)c2)c(C)n(C)c1C(=O)C(=O)NC1(CO)COC1 , give its reported CC50 at 6 days.
-- reply > 100 µM

-- ask For the compound Cc1c(C(=O)Nc2ccc(F)cc2)c(C)n(C)c1C(=O)C(=O)N[C@@H](C)C(F)(F)F , give its reported CC50 at 6 days.
-- reply > 100 µM

-- ask For the compound Cc1c(C(=O)Nc2ccc(F)c(C#N)c2)c(C)n(C)c1C(=O)C(=O)N[C@H]1CCOC1 , give its reported CC50 at 6 days.
-- reply > 100 µM

-- ask For the compound Cc1c(C(=O)Nc2ccc(F)c(C#N)c2)c(Cl)n(C)c1C(=O)C(=O)NC(C)(C)C , give its reported CC50 at 6 days.
-- reply > 100 µM

-- ask For the compound Cc1c(C(=O)Nc2ccc(F)c(C#N)c2)c(C)n(C)c1C(=O)C(=O)NC1(C)COC1 , give its reported CC50 at 6 days.
-- reply > 100 µM

Continuing:
-- ask For the compound Cc1c(C(=O)Nc2ccc(F)c(C#N)c2)c(C)n(C)c1C(=O)C(=O)NC(C)(C)CO , give its reported CC50 at 6 days.
-- reply > 100 µM

-- ask For the compound Cc1c(C(=O)Nc2ccc(F)c(C#N)c2)c(C)n(C)c1C(=O)C(=O)NC1CCOC1 (centres unmarked) , give its reported CC50 at 6 days.
-- reply > 100 µM

-- ask For the compound C#CCNC(=O)C(=O)c1c(C)c(C(=O)Nc2ccc(F)c(C#N)c2)c(C)n1C , give its reported CC50 at 6 days.
-- reply > 100 µM
